Tested on: LU-135 (Small Cell Lung Carcinoma)
ASSAY NAME: Bliss excess, mean over the matrix (fraction); higher = more synergy
PROPERTY NAME: Bliss excess
Form: value (number only, do not type unit).

Bliss excess reading for C[C@@H]1COCCN1c1cc(C2([S@](C)(=N)=O)CC2)nc(-c2ccnc3[nH]ccc23)n1 [AZD6738] + O=C(c1cc(Cc2n[nH]c(=O)c3ccccc23)ccc1F)N1CCN(C(=O)C2CC2)CC1 [Olaparib] (first compound max 10 µM, 7x7, partner max 10 µM) : 0.0331

* * *

Tested on: HT-1376 (Bladder Carcinoma)
ASSAY NAME: combination Emax (second highest fraction inhibited in the dose matrix, 72 h); higher = more inhibition; extreme values may be limits of the assay
# reported combination Emax; entries follow

Example entries and their recorded answers appear below.
combination Emax reading for COc1nnc2ccc(N3CCC(c4ccc(OCCN5CCN(C)C(=O)[C@H]5C)cc4)CC3)nn12 [AZD5153] + Cc1c2c(nn1C)CSCc1cc(n(C)n1)CSc1cc(c3ccccc3c1)OCCCc1c(C(=O)O)n(C)c3c-2c(Cl)ccc13 [AZD5991] (first compound max 1 µM, 7x7, partner max 1 µM) : 0.264

combination Emax reading for CCc1c2c(nc3ccc(O)cc13)-c1cc3c(c(=O)n1C2)COC(=O)[C@]3(O)CC [SN-38] + CN(C)CCCOc1ccc(-c2ccc3ncc4c(c3c2)n(C2CCOCC2)c(=O)n4C)cn1 [AZD0156] (first compound max 0.3 µM, 7x7, partner max 1 µM) : 0.118

combination Emax reading for C[C@@H](Oc1cc(-c2cnn(C3CCNCC3)c2)cnc1N)c1c(Cl)ccc(F)c1Cl [Crizotinib] + Cn1cnc2c(F)c(Nc3ccc(Br)cc3Cl)c(C(=O)NOCCO)cc21 [Selumetinib] (first compound max 10 µM, 7x7, partner max 10 µM) : 0.0756

With those in mind, consider the next molecule.
combination Emax reading for COc1nnc2ccc(N3CCC(c4ccc(OCCN5CCN(C)C(=O)[C@H]5C)cc4)CC3)nn12 [AZD5153] + CC1(C)CCC(CN2CCN(c3ccc(C(=O)NS(=O)(=O)c4ccc(NCC5CCOCC5)c([N+](=O)[O-])c4)c(Oc4cnc5[nH]ccc5c4)c3)CC2)=C(c2ccc(Cl)cc2)C1 [Venetoclax] (first compound max 1 µM, 7x7, partner max 1 µM) : 0.242

* * *

# reported Bliss excess; entries follow
System: KURAMOCHI (Ovarian Carcinoma)
ASSAY NAME: Bliss excess, mean over the matrix (fraction); higher = more synergy
Form: value (number only, do not type unit).

Example entries and their recorded answers appear below.
Bliss excess reading for CC1(C)CCC(CN2CCN(c3ccc(C(=O)NS(=O)(=O)c4ccc(NCC5CCOCC5)c([N+](=O)[O-])c4)c(Oc4cnc5[nH]ccc5c4)c3)CC2)=C(c2ccc(Cl)cc2)C1 [Venetoclax] + Cn1cnc2c(F)c(Nc3ccc(Br)cc3Cl)c(C(=O)NOCCO)cc21 [Selumetinib] (first compound max 1 µM, 7x7, partner max 3 µM) : -0.0333

Bliss excess reading for O=C(c1cc(Cc2n[nH]c(=O)c3ccccc23)ccc1F)N1CCN(C(=O)C2CC2)CC1 [Olaparib] + CN(CC[C@H](CSC1=CC=CC=C1)NC2=C(C=C(C=C2)S(=O)(=O)NC(=O)C3=CC=C(C=C3)N4CCC(CC4)[C@H](C5=CC=CC=C5C6=CC=C(C=C6)Cl)O)S(=O)(=O)C(F)(F)F)CCO [AZD4320] (first compound max 10 µM, 7x7, partner max 1 µM) : -0.0414

Bliss excess reading for CC1(C)CCC(CN2CCN(c3ccc(C(=O)NS(=O)(=O)c4ccc(NCC5CCOCC5)c([N+](=O)[O-])c4)c(Oc4cnc5[nH]ccc5c4)c3)CC2)=C(c2ccc(Cl)cc2)C1 [Venetoclax] + C[C@@H](Nc1cc(F)cc(F)c1)c1cc(C(=O)N(C)C)cc2c(=O)cc(N3CCOCC3)oc12 [AZD8186] (first compound max 1 µM, 7x7, partner max 3 µM) : -0.0467

Bliss excess reading for O=C(c1cc(Cc2n[nH]c(=O)c3ccccc23)ccc1F)N1CCN(C(=O)C2CC2)CC1 [Olaparib] + Cc1c2c(nn1C)CSCc1cc(n(C)n1)CSc1cc(c3ccccc3c1)OCCCc1c(C(=O)O)n(C)c3c-2c(Cl)ccc13 [AZD5991] (first compound max 10 µM, 7x7, partner max 1 µM) : -0.0546

Bliss excess reading for CC1(C)CCC(CN2CCN(c3ccc(C(=O)NS(=O)(=O)c4ccc(NCC5CCOCC5)c([N+](=O)[O-])c4)c(Oc4cnc5[nH]ccc5c4)c3)CC2)=C(c2ccc(Cl)cc2)C1 [Venetoclax] + Cc1cc2ncnn2cc1Nc1ncc2c(n1)n(C1CCOCC1)c(=O)n2C [AZD7648] (first compound max 1 µM, 7x7, partner max 10 µM) : -0.0605

***
Bliss excess reading for C=CCn1c(=O)c2cnc(Nc3ccc(N4CCN(C)CC4)cc3)nc2n1-c1cccc(C(C)(C)O)n1 [AZD1775] + O=C(c1cc(Cc2n[nH]c(=O)c3ccccc23)ccc1F)N1CCN(C(=O)C2CC2)CC1 [Olaparib] (first compound max 1 µM, partner max 10 µM) : -0.0358

Bliss excess reading for CN(C)CCCOc1ccc(-c2ccc3ncc4c(c3c2)n(C2CCOCC2)c(=O)n4C)cn1 [AZD0156] + O=C(c1cc(Cc2n[nH]c(=O)c3ccccc23)ccc1F)N1CCN(C(=O)C2CC2)CC1 [Olaparib] (first compound max 3 µM, partner max 3 µM) : -0.0737

* * *

Test system: OVCA420 (Ovarian Carcinoma)
ASSAY NAME: combination Emax (second highest fraction inhibited in the dose matrix, 72 h); higher = more inhibition; extreme values may be limits of the assay
# reported combination Emax; entries follow
Form: value (number only, do not type unit).

Measured on OVCA420 (Ovarian Carcinoma), C[C@@H](c1ccc2nccn2c1)n1nnc2ncc(-c3cnn(C)c3)nc21 [Savolitinib] + CN(CC[C@H](CSC1=CC=CC=C1)NC2=C(C=C(C=C2)S(=O)(=O)NC(=O)C3=CC=C(C=C3)N4CCC(CC4)[C@H](C5=CC=CC=C5C6=CC=C(C=C6)Cl)O)S(=O)(=O)C(F)(F)F)CCO [AZD4320] (first compound max 1 µM, 7x7, partner max 1 µM) has a documented combination Emax of 0.192

***
Measured on OVCA420 (Ovarian Carcinoma), CC1(C)CCC(CN2CCN(c3ccc(C(=O)NS(=O)(=O)c4ccc(NCC5CCOCC5)c([N+](=O)[O-])c4)c(Oc4cnc5[nH]ccc5c4)c3)CC2)=C(c2ccc(Cl)cc2)C1 [Venetoclax] + C[C@@H](Nc1cc(F)cc(F)c1)c1cc(C(=O)N(C)C)cc2c(=O)cc(N3CCOCC3)oc12 [AZD8186] (first compound max 1 µM, 7x7, partner max 3 µM) has a documented combination Emax of 0.165

Measured on OVCA420 (Ovarian Carcinoma), Cc1cc2ncnn2cc1Nc1ncc2c(n1)n(C1CCOCC1)c(=O)n2C [AZD7648] + C[C@@H]1COCCN1C2=NC(=NC(=C2)C3(CC3)[S@](=N)(=O)C)C4=C5C=CNC5=NC=C4 [AZD6738] (first compound max 10 µM, 7x7, partner max 10 µM) has a documented combination Emax of 0.509

* * *

Tested on: EC-GI-10 (Esophageal Squamous Cell Carcinoma)
ASSAY NAME: Bliss excess, mean over the matrix (fraction); higher = more synergy
PROPERTY NAME: Bliss excess
Form: value (number only, do not type unit).

Example entries and their recorded answers appear below.
Bliss excess reading for CC(=O)c1c(C)c2cnc(Nc3ccc(N4CCNCC4)cn3)nc2n(C2CCCC2)c1=O [Palbociclib] + Cn1cnc2c(F)c(Nc3ccc(Br)cc3Cl)c(C(=O)NOCCO)cc21 [Selumetinib] (first compound max 10 µM, 7x7, partner max 10 µM) : -0.0407

Bliss excess reading for COc1nnc2ccc(N3CCC(c4ccc(OCCN5CCN(C)C(=O)[C@H]5C)cc4)CC3)nn12 [AZD5153] + Cc1c2c(nn1C)CSCc1cc(n(C)n1)CSc1cc(c3ccccc3c1)OCCCc1c(C(=O)O)n(C)c3c-2c(Cl)ccc13 [AZD5991] (first compound max 1 µM, 7x7, partner max 1 µM) : 0.0527

Bliss excess reading for Cc1cc2ncnn2cc1Nc1ncc2c(n1)n(C1CCOCC1)c(=O)n2C [AZD7648] + C[C@@H]1COCCN1C2=NC(=NC(=C2)C3(CC3)[S@](=N)(=O)C)C4=C5C=CNC5=NC=C4 [AZD6738] (first compound max 10 µM, 7x7, partner max 10 µM) : -0.0064

With those in mind, consider the next molecule.
Bliss excess reading for CCN(CCO)CCCOc1ccc2c(Nc3cc(CC(=O)Nc4cccc(F)c4)[nH]n3)ncnc2c1 [AZD2811] + C[C@@H]1COCCN1C2=NC(=NC(=C2)C3(CC3)[S@](=N)(=O)C)C4=C5C=CNC5=NC=C4 [AZD6738] (first compound max 1 µM, 7x7, partner max 10 µM) : 0.0182
